We begin with a simple list: items and their reported EC50 hGIP R [pM] (formed cAMP).
- TARGET SYSTEM: T1, human GIP receptor (human, UniProt P48546 22-466)
- T1 sequence (looked up): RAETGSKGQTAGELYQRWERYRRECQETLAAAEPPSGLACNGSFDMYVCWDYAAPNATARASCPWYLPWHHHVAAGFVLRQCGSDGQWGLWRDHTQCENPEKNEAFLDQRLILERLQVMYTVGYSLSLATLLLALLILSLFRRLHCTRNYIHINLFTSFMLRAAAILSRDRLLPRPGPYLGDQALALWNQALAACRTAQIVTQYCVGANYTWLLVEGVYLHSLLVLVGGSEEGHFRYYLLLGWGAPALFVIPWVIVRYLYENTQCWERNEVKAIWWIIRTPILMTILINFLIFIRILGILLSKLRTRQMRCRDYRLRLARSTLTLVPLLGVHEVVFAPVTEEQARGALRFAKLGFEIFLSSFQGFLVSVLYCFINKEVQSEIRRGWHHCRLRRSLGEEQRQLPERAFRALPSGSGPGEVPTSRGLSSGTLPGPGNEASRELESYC
- PROTOCOL DETAILS: cell-based or functional assay
*1 amine or outer side, *2 acyl side, *3 side chain or, on linkers, in order; H or OH if unused. Where no end group is shown, it is not given here. Side-chain parts run from the residue outwards. [ ]: non-standard residue; d: D form. γGlu = O=C(O)[C@H](CCC(=O)[*:2])N[*:1]; x70 = not defined here; Aib = CC(C)(N)C(=O)O
Respond numerically; units are pM and should not be typed.

{"columns": ["BINDER", "EC50 hGIP R [pM] (formed cAMP) / pM"],
 "data": [
  ["Y[Aib]EGTFTSDLSIQK([γGlu-x70])EEEAVRLFIEWLK[Aib]GGPSSGAPPPS-NH2 (reading uncertain) [SEQ ID NO: 12]", 14.6],
  ["Y[Aib]EGTFTSDLSIQK([γGlu-x70])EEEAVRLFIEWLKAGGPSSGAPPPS-NH2 (reading uncertain) [SEQ ID NO: 10]", 6.7],
  ["Y[Aib]EGTFTSDLSIQK([γGlu-x70])EKEAVRLFIEWLKAGGPSSGAPPPS-NH2 (reading uncertain) [SEQ ID NO: 13]", 16.8]
]}

May I ask what EC50 hGIP R [pM] (formed cAMP) has been recorded for Y[Aib]EGTFTSDLSIQK([γGlu-x70])EEEAVRLFIEWLK[Aib]GGPSSGAPPPS-NH2 (reading uncertain) [SEQ ID NO: 9] ? 14.6
